- assay-procedure: soluble on expression in E. coli; label from the status in PepcDB or PDB records
quantity-name: soluble on expression in E. coli

Below, 4 sequences whose answers are already recorded.
construct-sequence	endpoint-value
MGSDKIHHHHHHAACSNDEKITESTPKTVALTVKLPEFGGASSRAIDPETTTGNKVTINGPVKIIARVSQGGAITNTISENITAGSMSTITVSGAAQWIEVEANGDNSTETDNVNTRQGSATSSKVRLFGGATINPGSGGNATCTPTISPDMARVEVKGSLGTSWTHLTDLKVKGIYINNIKLTRGVSSLTRIASAAWNTEYAPSGKFEKMFNDNLGGVGAGAGVAQITPGQADGYNFFPQKDNTLPLPTTKEDVMKNSIHIIMEVEFTRADGVPVVGPQWLNVVALKDNTATNYITDFEAGNVYSIDLADIKDIMDVPVPPVTPNPDPETVSVDLTVSIGQWTVVQVKPEV	not soluble
MAHHHHHHMPLFCSSTTFMLKVRRAAVKTWKCFAFIAFVSSSMRYISCGFTADDNTKSKSCPFDALGISNNSDMTTVKAAYRSKCQTEHPDVGGTEEGFRRIRWAYESCCEKLVKTGPRSNSEFDGSSHESSSKQKDDEGDYTHSYYRYKSKDERYHEQRQMFYYLFSSVETRNDIDNLLSKALRSHCFDAIDVSEPLRLSLRNYHRVTGYGEHHLTSCFAAMEHWEEYTQRRADVTQYHIMLILYTDGPKPGLTAQLISEGVEAIMEQMCVKGIEYDDWSLTLAHKAYRVCPYPST	not soluble
MKRRESSPLISTILGIRYGRCVMGNFSIVIPTYNERDNIVKLVEEINRIVPYNSRILIVDDNSPDGTALILQELNIHNLTVLIRHNERGLGSALRYGISKAIELESDFIVTMDADFSHNPKYLPEMMKIALNENCDLVIGSRYVIGGGIENWSLSRRIISKGANYLFKLVSHSPIMDNTSNYRIYSRRAALLALECDTTNGYEFQICSIFKIIRNNLKIKEYPIIFVDRKTGKSKLNLKEILNWFLYIIRLSLSFLEHHHHHH	not soluble
VDIYASMTPAKDVGGDFYDFFQIDDERIGLVIADVSGKGVPASLFMAVSRTLLRATALRGVSSAECLTYANKLLCKESLDSMFVTVFYGIYHYKTGMMDYTNAGHNPPYLLRGGRTVECLPVASNFVVGVFDDIEFESNTLTFGIGDTLLLYTDGVTEAFNDKREQFSESNLQDILASMHESSSAKEVVTSVLQSVKTFSGDYPQSDDITLLSLQRIK	not soluble

Return soluble on expression in E. coli for the following sequence: MQEIIFIDEGSFPTPEGVTREWVQGAAENRDEDEKLFSIIREAFQIKIDAGVQVPTYPQFRDMIGQFFDIIKDEKNCHEPYVLKEERATILELEAIDEVAKQYKIETGKTLEVRVCIAGPTDMYYQAFGATAFVDVYDILAKDIEKFIKQAFKTAKNFKIKVIALDEIGLGLNDKIQFSDDEIISALTVASTFARQQGADVEIHVYSPLKYELICETPINVIGFEYAGNPSYIDLLDRKVLEDSDAYAGVGISRTDIFSLISIVNEKYGINAWKDKEYMQKIVTELETPDIIKKRLETAYSVLGDRIKYANPDCGLAFWPDQELAFRLLENTAKAVNEFNAEGIINKAAALEHHHHHH not soluble

###

- assay-procedure: soluble on expression in E. coli; label from the status in PepcDB or PDB records

construct-sequence	soluble on expression in E. coli
SVKETENLLQTGISEVRGTLKISAPRDIGKQIISPMVSAFSEQYPDVTPYLYLNDNLSNLAESGLDLVIRYGELADSNLISRRLASSQRVLCASPDYLSKQGVPNCPQDLAAHRCLAMVRSNEELKTWHFKDEESHQSITVTPKRFSDDGEVIRQWALDGAGIALKSILDIQQDLKQQRLVTVLDGYMKNFSAFSQGAEADLHVIYQSRQYQPKRVRLFLDFLVEQFSALSDTSNQI	not soluble
MNIVNKDSKNTFTRMCIGEAIIKLLKDTDFDKIRITSVAKCAGVSRITFYKYYESIHDALCDYLNIIIIEYLEECANNPENGSFLDYSHILFALEFFNRYKDYFLTLSRCGLHSILINSINNFMSEHFTNPKNYSEYRLYCYSGGLLNTFLKWEENGCDCDAGEIARTLEELYS	not soluble
MGSDKIHHHHHHMTTGKKVARRKLSLLELASELDNVSKACRIMGYSRQQFYEIRRNYQTFGAEGLVDRLPGPREPHPNRVDEATEDRILAYSLEFPTHGPVRVAQQLVLQGVQVSSGGVRGVWSRNGMLTRHERLLRLERHVRDTGIALNDDQVRTLERFSPEFRERHIETRCSGDLVAVDTFFVGTLKGVGKIYLQSAIDCHSRYAFGRLYTSKLPVTAVHMLNESVLPFFEEHDTPVVTVLSDNGREFCGRPDRHPYELFLQLENIEHRTTRVRRPQSNGFVERLHRTLLDEHFRIQGRKNWYESLDEMQADLDAYLRHYNHERAHQGRNMSGRTPYQAFLDSRPEGQPKEDNEGHYAA	not soluble

###

- assay-procedure: soluble on expression in E. coli; label from the status in PepcDB or PDB records

construct-sequence	soluble on expression in E. coli
MSLNSTQMNKQVIDKYTQRHELYLEQLLNEIIIPAPQIRSALHYALFSGGKRIRPILVYLAGDLIDVDQGVLDIIAAALELTHCYSLIHDDLPAMDNDDLRRGKPSCHKAFDEATAILVGDGMQALAIEVLLMRLSPLLPAAQVVAITQVLVNASGISGMVSGQSLDLSELAKSSVTEEQLREIHLLKTGKLILACFEMVLAAQHEVSEQIKSALRTYGKHIGLVFQMQDDYLDLYAPTQILGKGRSSDQANQKTTFATLFNKQQLEEEIAVHYQIAMDSLRLFGSKAAALIELTKQLQNRSNLSEGHHHHHH	soluble
MTVERIAEQPLDSELGHFNLITYRDSVEGDVHLALTLGKVCAEEPTLVRVHNMDPLRDLLQVNQPGRWSLRAAMTKVAEAGSGVVLLLGHQIGGDDLLAHVREIASAPAPAPKATTTYSTVGAGSQILRDLGVRKMRLLSAPMRFNAISGFDLEVVEYLPA	soluble

###

- assay-procedure: soluble on expression in E. coli; label from the status in PepcDB or PDB records
quantity-name: soluble on expression in E. coli

construct-sequence	endpoint-value
MKYDDTINIAFFGLDRRQKTDISRSDSIMILTMDPTHKKLKLSSIMRDTYVNVDGHGMTKITHAYAYGGPQLAIKTINENFNLNIKDYVTVDFYGLEKIIDKLNGVEVDVQPDEVNYLNSYIDEVSKYEKVTPNHVSSAGKQLLDGRQAVAYSRIRYTAGGDFQRTERQRTVLMAVFNKMKAQGKSNMLSMMDELLPYAETDLGSLDIAKYGAKFLSSNIDSIDQERFPVDGYCSGITVDNVWYLKTDLGVTSDQMKKYIFEDVKPTPKASLVNIPAKLEHHHHHH	soluble
MKIALINENSQASKNHIIYDSLKEATDKKGYQLFNYGMRGEEGESQLTYVQNGLMAAILLNTKAVDFVVTGCGTGVGAMLALNSFPGVVCGLAVDPTDAYLYSQINGGNALSIPYAKGFGWGAELTLKLMFERLFAEEMGGGYPRERVIPEQRNARILNEVKQITHNDLMTILKIIDQDFLKDTISGKYFQEYFFENCQDDEVAAYLKEVLAK	soluble

###

- assay-procedure: soluble on expression in E. coli; label from the status in PepcDB or PDB records
quantity-name: soluble on expression in E. coli

construct-sequence	quantity-name	endpoint-value
VAAAPRSPEDRRAQILDVAVRLLETVPFDDLSMDQVAAEAGVSPPLLFHYFKNKQGFRNAVLEASASELQRRMTPDAALPVSGQLRAGVETFADAVIEHPTIYLAVMRMAGSGDERMRQIYRGMRRTFTRWIGASLAEFGVPTTPALEAAISGWQAFMEEIVLSWLDEPTMDRTDMIDLCERAFYHLLPAAGVDVDALDVTR	soluble on expression in E. coli	soluble
VDLGGVRRRISLMARQHGPTAQRHVASPMTVDIARLGRRPGAMFELHDTVHSPARIGLELIAIDQGALLDLDLRVESVSEGVLVTGTVAAPTVGECARCLSPVRGRVQVALTELFAYPDSATDETTEEDEVGRVVDETIDLEQPIIDAVGLELPFSPVCRPDCPGLCPQCGVPLASEPGHRHEQIDPRWAKLVEMLGPESDTLRGER	soluble on expression in E. coli	not soluble
MSLAFGLDKLVDLLKAAGEPTRFRLLALLSAGDLTVTDLTEILGQSQPRISRHLKLLTEEGLIERYQEGAWAYFRLRQDGEPAVVVRQLLGAASPSDAVLQRDSERLATVKRVRAERAQDYFSRNASAWDELRRLHVSDEAVEGALLKLVGTTPIDSLLDLGTGTGRILQLLSGIYRRAIGVDASRDMLSVARANLDKAGVGNASVRHGDILNLPLEGQDFDLIVIHQVLHFLDQPEIALSEAARMLRPGGRLIVIDLAPHSFEYLRDEHAHVRLGFSHPLMEEWMKKAGLSLERAVDLHSEKASDEALDVTIWVARDQRLLMADDVVQEAVLLRSGRAEGHHHHHH	soluble on expression in E. coli	soluble
MGSDKIHHHHHHMKEKERLIIEMAMKLFATKGVNATSVQEIVTACGISKGAFYLYFKSKEELLLATLRYYYDKIQNKMMDIEKESLLPREKFAKQLHCQFNDIQKHKEFIIMHARENAIPFNKEVEEFMMRMKLESHAFYRNSLLSIYGDKVMPYLLDLVIMVEGICRGYLELIILQAPEIDLSYVSAFILKRVDHLVDGLVKSSEEPVLHEERLGEFLCKSELIKEQVKEHFLKEIIVFKRTLADQLEDEELLVTLDVLEAEMRMQNPRIPVIQGMLFNLEAYPTLKEFRLRLMGYYNIKR	soluble on expression in E. coli	not soluble
MGSDKIHHHHHHMMDKEIENGSVNVDLLELEKFNQLAHRWWDPNSEFKPLHEINPLRLGYIDRHARLAGKDVLDVGCGGGILSESMAESGAQVTGIDLGDKALKVAKLHLLESGNKVNYRKSSVEALAAEQPHHYDVVTCMEMLEHVPDPVSTVRACAELAKPGGWVFFSTINRNPKSYLFAVIGAEYVLNLLPRGTHDYAKFIKPSELGRMAREAGLDVQEVIGMSYNPITKVYSLGQDTDVNYIMAFRA	soluble on expression in E. coli	not soluble
EEPTIGDIYNGKVTSIMQFGCFVQLEGLRKRWEGLVHISELRREGRVANVADVVSKGQRVKVKVLSFTGTKTSLSMKDVDQETGEDLNPNRRRNLV	soluble on expression in E. coli	soluble
MFILKDVTYKDILHIPYLQIQKEKITCIIGESGSGKSTLLRMLNDLQSPTSGIIEYNGKLISDYPPIQLRRDVVMLGQTPPIFDGTIKDNLLMGLRLSEKPFPNDDILRSALKTISLEKNLEDNADSLSGGEKQRLAFARIVLMDPPVYLLDEPTSALDSDTERRVMKQFTTLAREKKKTVIFITHSQQLPEEIADDIIEISKANGATRKEVLSVEGRY	soluble on expression in E. coli	not soluble
NPAIAMTEKEIKEYGFPFDARFCSLPLVHADDLKQIFGRYASEVCCRYLRPFDSDYYTLATKNFYQTDIAALDPTAVVGGEDTIRGLMRVATEVCFVIESGKPGAFHPRIHFEKSFRYAHLSLEEKKAWQRLSDDYFHKRNDDLWKQEALSRLIPLLSSTDMLVCVEDLGMIPPAVPVVMEQLQLLSLILERISKEPGQDFADMSRQPYCSVCTTSTHDMAPLRLWWQENELPRRHYYSMILGEKGTAPETCTPETARRILRQHLLSTSMLAIFPLADWLSLSGELQGIVAPEDEQINKPEISDHYWRYRMPISIESLSEDYRELNESIASLIRTSGRG	soluble on expression in E. coli	not soluble

Return soluble on expression in E. coli for the following sequence: WTKKTLGSLFELKKGEMLEKELLAPDGKYEYFNGGIKASGRTNEFNTFKNTISIIIGGSCGYVRLADKDYFCGQSSCTLTVLDPLEIDLKFAYYALKSQEEKITSLASGTTIKNIRLSDLKDLPIPLVKSIQDQRTIAHALSVFDL soluble
